FYI, the data here is from PubChem BioAssay (NCATS).

test: qHTS Screen of the MIPE 4.0 Collection Against Ewings Sarcoma (EW8) (AID 1259255); details: EW8 Ewing sarcoma viability, CellTiter-Glo, 48 h; series mostly up to 45.8 µM; further: nearly all actives have a fitted effect of over 35% in size; further: potency means the concentration at half of the fitted maximal effect;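 on viability: 100% = DMSO-treated cells and 0% = medium-only wells without cells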
Inconclusive results are not listed. Activity calls are given as the source filed them. The call rests on the fitted dose curve; in most records, active means well fitted inhibition curve with a large enough effect; inconclusive means small, poorly fitted or top-dose-only effect; inactive means no such curve, though single readings can be large or run the other way.
REPORTED_ENDPOINT: Potency

Known Potency results, listed for orientation:
NCCS(=O)(=O)O = inactive
CC1(CN2CCC(n3c(=O)[nH]c4ccccc43)CC2)OCc2ccccc2-n2cccc21 (stereo not given) = 14.8 µM (active)
CC(=O)OCC(CCn1cnc2cnc(N)nc21)COC(C)=O = inactive
Cc1cn([C@H]2C=C[C@@H](CO)O2)c(=O)[nH]c1=O = inactive
CN(Cc1cnc2nc(N)nc(N)c2n1)c1ccc(C(=O)N[C@@H](CCC(=O)O)C(=O)O)cc1 = 0.0264 µM (active)

Fill in: Potency of CC#C[C@]1(O)CC[C@H]2[C@@H]3CCC4=CC(=O)CCC4=C3[C@@H](c3ccc(N(C)C)cc3)C[C@@]21C is ___ 0.418 µM (active)

====

molecular target: Furin (Homo sapiens) (UniProt P09958); assay: Furin counterscreen qHTS for Zika virus inhibitors (AID 1347149); conditions: furin enzymatic counterscreen, fluorogenic substrate; series mostly up to 57.5 µM; further: nearly all actives have a fitted effect of over 70% in size
Sequence (P09958 whole entry, looked up): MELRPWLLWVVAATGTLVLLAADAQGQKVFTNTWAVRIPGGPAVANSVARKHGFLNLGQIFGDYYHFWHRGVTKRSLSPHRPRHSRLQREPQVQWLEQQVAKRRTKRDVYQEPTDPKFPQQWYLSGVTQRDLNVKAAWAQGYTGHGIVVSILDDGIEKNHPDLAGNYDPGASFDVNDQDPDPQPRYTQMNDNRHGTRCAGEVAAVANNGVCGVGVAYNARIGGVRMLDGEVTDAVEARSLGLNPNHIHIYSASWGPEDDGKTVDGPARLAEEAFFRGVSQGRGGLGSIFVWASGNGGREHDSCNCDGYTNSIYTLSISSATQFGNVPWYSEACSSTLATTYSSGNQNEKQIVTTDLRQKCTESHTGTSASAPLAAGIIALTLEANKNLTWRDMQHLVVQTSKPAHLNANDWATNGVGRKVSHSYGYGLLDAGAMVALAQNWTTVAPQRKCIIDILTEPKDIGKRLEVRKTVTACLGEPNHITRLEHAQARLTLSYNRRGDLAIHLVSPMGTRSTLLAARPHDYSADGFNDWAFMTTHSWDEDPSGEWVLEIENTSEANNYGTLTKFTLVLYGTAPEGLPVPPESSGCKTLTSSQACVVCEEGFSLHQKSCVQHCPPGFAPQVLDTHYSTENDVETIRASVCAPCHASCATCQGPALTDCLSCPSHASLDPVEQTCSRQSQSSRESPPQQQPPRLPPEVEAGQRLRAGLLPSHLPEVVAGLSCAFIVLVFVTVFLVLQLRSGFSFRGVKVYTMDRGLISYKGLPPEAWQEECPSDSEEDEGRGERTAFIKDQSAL
Inconclusive results are not listed. Active and inactive are the calls of the source. The call rests on the fitted dose curve; in most records, active means well fitted inhibition curve with a large enough effect; inconclusive means small, poorly fitted or top-dose-only effect; inactive means no such curve, though single readings can be large or run the other way.
// one of 1 = active, 0 = inactive, no free text

# count of solved cases: 6
O=C(Nc1ccc([N+](=O)[O-])cc1Cl)c1cc(Cl)ccc1O = 0
O=C1Cc2cc(CCN3CCN(c4nsc5ccccc45)CC3)c(Cl)cc2N1 = 1
COc1cc2nc(N3CCN(C(=O)c4ccco4)CC3)nc(N)c2cc1OC = 1
O=C(c1ccc(F)cc1)C1CCN(CCn2c(=O)[nH]c3ccccc3c2=O)CC1 = 0
CN(Cc1cnc2nc(N)nc(N)c2n1)c1ccc(C(=O)N[C@@H](CCC(=O)O)C(=O)O)cc1 = 1
C[C@H]1c2cccc(O)c2C(O)=C2C(=O)[C@]3(O)C(O)=C(C(N)=O)C(=O)[C@@H](N(C)C)[C@@H]3[C@@H](O)[C@@H]21 = 0

Consider the record given below.
Dear all, I need the recorded test outcome for CC(C)(C)C(=O)Oc1ccc(S(=O)(=O)Nc2ccccc2C(=O)NCC(=O)O)cc1 , thank you. 0

====

Listed here are molecules together with their documented growth, % of control.
experiment: qHTS profiling of the MIPE4 collection as inhibitors of Plasmodium falciparum (HB3) proliferation (AID 743347);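 further: plate controls were DMSO vehicle wells for no effect and artemisinin wells for full effect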; settings: P. falciparum HB3 in erythrocytes, SYBR Green DNA, 72 h; at 28.5 µM (top of the series) unless noted
Note: unit % is implicit; provide only the numeric part.

Previously resolved entries follow.
CN(Cc1cnc2nc(N)nc(N)c2n1)c1ccc(C(=O)N[C@@H](CCC(=O)O)C(=O)O)cc1 = 19.5
Nc1c2c(nc3ccccc13)CCCC2 = 20.2
CCOC(=O)C(C)(C)Oc1ccc(Cl)cc1 = 104

--- query ---
Using the record for CCc1cccc2c3c([nH]c12)C(CC)(CC(=O)O)OCC3 (configuration not stated) , report its growth, % of control. 94.1

====

Listing: activity, negative = inhibition of selected compounds
experiment: qHTS profiling for inhibitors of Plasmodium falciparum proliferation (AID 504749);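 further: 0% = DMSO vehicle and full inhibition = artemisinin control; nearly all actives have a fitted effect of over 60% in size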; details: P. falciparum in erythrocytes, SYBR Green DNA, 72 h; at 28.7 µM (top of the series); parasite line A
Inconclusive results are not listed.
Respond with the bare value in %.

CC(C)(Oc1ccc(C2CC2(Cl)Cl)cc1)C(=O)O (stereo not given) = -6.79
CS(=O)(=O)CCNCc1ccc(-c2ccc3ncnc(Nc4ccc(OCc5cccc(F)c5)c(Cl)c4)c3c2)o1 = 6.38
CC(CCc1ccc(O)cc1)NCCc1ccc(O)c(O)c1 (stereo not given) = 7.14
NS(=O)(=O)c1cc2c(cc1Cl)NCNS2(=O)=O = 1.79
Cc1cn([C@H]2C[C@H](N=[N+]=[N-])[C@@H](CO)O2)c(=O)[nH]c1=O = -7.84

Entry Cc1cn([C@H]2C=C[C@@H](CO)O2)c(=O)[nH]c1=O has what activity, negative = inhibition? 2.38

Value lookup for activity, negative = inhibition; key = CC12CC3CC(C)(C1)CC(N)(C3)C2 13.9

I am curious: what activity, negative = inhibition value has been reported for CC(C)(C)C(=O)Oc1ccc(S(=O)(=O)Nc2ccccc2C(=O)NCC(=O)O)cc1 ? -0.829

Item Nc1nnc(-c2cccc(Cl)c2Cl)c(N)n1 has what recorded activity, negative = inhibition? -17

Can you share its activity, negative = inhibition? I mean this compound: NC(=O)NO 16
